Just for reference, patent EP1140984B1 is where these values come from.

# target.entity: MMP-2 (Homo sapiens, UniProt P08253)
# Construct: vector pHIL-D2)
# Sequence (P08253 110-660): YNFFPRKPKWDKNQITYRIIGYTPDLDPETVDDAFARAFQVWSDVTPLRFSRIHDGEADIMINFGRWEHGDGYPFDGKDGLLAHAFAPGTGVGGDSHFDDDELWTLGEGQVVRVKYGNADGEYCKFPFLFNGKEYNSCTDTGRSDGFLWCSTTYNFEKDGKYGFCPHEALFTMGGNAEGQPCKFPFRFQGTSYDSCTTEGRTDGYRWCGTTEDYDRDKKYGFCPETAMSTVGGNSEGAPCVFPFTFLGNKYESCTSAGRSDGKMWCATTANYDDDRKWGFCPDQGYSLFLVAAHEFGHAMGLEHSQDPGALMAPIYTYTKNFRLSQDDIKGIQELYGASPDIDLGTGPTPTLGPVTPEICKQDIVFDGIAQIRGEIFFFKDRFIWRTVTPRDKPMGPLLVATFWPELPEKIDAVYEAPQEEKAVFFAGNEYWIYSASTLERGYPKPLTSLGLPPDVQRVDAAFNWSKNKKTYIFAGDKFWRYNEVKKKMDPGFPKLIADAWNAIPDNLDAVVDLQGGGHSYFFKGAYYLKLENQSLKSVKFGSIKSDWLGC
# run.description: Determination of inhibition constant (Ki) for MMP-2, fluorogenic substrate assay
# condition.description: substrate Mca-Pro-Leu-Gly-Leu-Dpa-Ala-Arg-NH2, 37°C, pH 7.6, [S] = 1 µM, [MMP-2] = 0.4 nM
Counter-ions that a name gives are not always drawn.
The entries below come with measured pKi values attached.
Note on pKi: it is the negative log10 of concentration, concentration in mol/L.

Here are 5 compounds together with their reported answers.
CCCC(S)C(=O)N[C@@H](CCc1ccccc1)C(=O)N[C@@H](Cc1ccccc1)C(=O)O (stereo partly drawn)	5.74
CC(C)C[C@H](NC(=O)C(S)C(C)C)C(=O)N[C@@H](Cc1ccccc1)C(=O)O (stereo in doubt)	6.11
CC(C)C(S)C(=O)N[C@@H](CCCCN)C(=O)N[C@@H](Cc1ccccc1)C(=O)O (stereo in doubt) [Example 5, trifluoroacetic acid salt]	5.76
CSCC[C@H](NC(=O)C(S)C(C)C)C(=O)N[C@@H](Cc1ccccc1)C(=O)O (stereo in doubt)	6.10
CNC(=O)[C@H](Cc1ccccc1)NC(=O)[C@H](CCc1ccccc1)NC(=O)[C@@H](S)C(C)C	8.48

INPUT: Given CC(C)[C@H](S)C(=O)N[C@@H](CCc1ccccc1)C(=O)N[C@@H](Cc1ccccc1)C(=O)O , state its recorded pKi.
OUTPUT: 6.14

---

# target.entity: MMP-3 (Homo sapiens, UniProt P08254)
# Construct: The active MMP-3 was obtained by treatment of proMMP-3 with trypsin; endogenous in cells
# Sequence (P08254 100-477): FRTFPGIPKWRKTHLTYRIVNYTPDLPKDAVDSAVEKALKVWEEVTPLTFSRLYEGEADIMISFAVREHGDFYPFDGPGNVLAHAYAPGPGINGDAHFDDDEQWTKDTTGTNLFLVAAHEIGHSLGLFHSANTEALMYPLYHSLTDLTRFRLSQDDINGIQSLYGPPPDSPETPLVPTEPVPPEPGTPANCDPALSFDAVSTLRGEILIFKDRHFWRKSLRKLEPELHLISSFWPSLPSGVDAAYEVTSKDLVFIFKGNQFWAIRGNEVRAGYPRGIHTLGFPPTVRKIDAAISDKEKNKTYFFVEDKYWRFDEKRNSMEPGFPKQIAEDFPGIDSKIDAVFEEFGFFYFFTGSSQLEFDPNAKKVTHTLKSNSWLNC
# run.description: Determination of inhibition constant (Ki) for MMP-3, fluorogenic substrate assay
# condition.description: substrate Mca-Pro-Leu-Gly-Leu-Dpa-Ala-Arg-NH2, 37°C, pH 7.6, [S] = 1 µM, [MMP-3] = 1 nM
pKi: −log10 of the molar value. Structures can show the parent of a compound that is named as a salt.
Kind request: treat 6 as inclusive, so pKi at 6 or higher is yes (1), anything lower is no (0).

INPUT: Does pKi meet or surpass 6 for CC(C)[C@H](S)C(=O)N[C@@H](CCc1ccccc1)C(=O)N[C@@H](Cc1ccccc1)C(=O)O [Example 2] ?
OUTPUT: yes (1)

INPUT: Now consider CCCC(S)C(=O)N[C@@H](CCc1ccccc1)C(=O)N[C@@H](Cc1ccccc1)C(=O)NC (stereo partly shown) [Example 6] and answer again.
OUTPUT: yes (1)

INPUT: Now consider CC(C)C(S)C(=O)N[C@@H](CCCCN)C(=O)N[C@@H](Cc1ccccc1)C(=O)O (stereo in doubt) [Example 5, trifluoroacetic acid salt] and answer again.
OUTPUT: no (0)

INPUT: Now consider CNC(=O)[C@H](Cc1ccccc1)NC(=O)[C@H](CCc1ccccc1)NC(=O)[C@@H](S)C(C)C [Example 7] and answer again.
OUTPUT: yes (1)

INPUT: Now consider CSCC[C@H](NC(=O)C(S)C(C)C)C(=O)N[C@@H](Cc1ccccc1)C(=O)O (stereo in doubt) [Example 4] and answer again.
OUTPUT: yes (1)

---

Where a name gives a salt, the structure may show the parent alone.
# MMP-12 (Homo sapiens): Ki values follow
# Sequence (P39900 106-263 limits assumed): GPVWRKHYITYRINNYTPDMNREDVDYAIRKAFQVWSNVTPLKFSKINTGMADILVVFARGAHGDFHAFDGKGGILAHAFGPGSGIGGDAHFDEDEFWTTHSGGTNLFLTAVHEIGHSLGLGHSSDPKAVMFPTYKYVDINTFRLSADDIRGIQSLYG
Phrase the answer as number then unit, nothing more needed.

Here are 4 compounds together with their reported answers.
CC(C)C[C@H](NC(=O)C(S)C(C)C)C(=O)N[C@@H](Cc1ccccc1)C(=O)O (stereo in doubt)	14 nM
CSCC[C@H](NC(=O)C(S)C(C)C)C(=O)N[C@@H](Cc1ccccc1)C(=O)O (stereo in doubt)	14 nM
CC(C)C(S)C(=O)N[C@@H](CCCCN)C(=O)N[C@@H](Cc1ccccc1)C(=O)O (stereo in doubt) [Example 5, trifluoroacetic acid salt]	151 nM
CCCC(S)C(=O)N[C@@H](CCc1ccccc1)C(=O)N[C@@H](Cc1ccccc1)C(=O)O (stereo partly drawn)	13 nM

INPUT: Given CCCC(S)C(=O)N[C@@H](CCc1ccccc1)C(=O)N[C@@H](Cc1ccccc1)C(=O)NC (stereo partly drawn) , state its recorded Ki.
OUTPUT: 14 nM

INPUT: Now consider CC(C)[C@H](S)C(=O)N[C@@H](CCc1ccccc1)C(=O)N[C@@H](Cc1ccccc1)C(=O)O and answer again.
OUTPUT: 4 nM

---

The entries below come with measured pKi values attached.
# target.entity: MMP-1 (Homo sapiens)
# Construct: The active MMP-1 was obtained by treatment of proMMP-1 with trypsin; endogenous in cells
# Sequence (P03956 100-469): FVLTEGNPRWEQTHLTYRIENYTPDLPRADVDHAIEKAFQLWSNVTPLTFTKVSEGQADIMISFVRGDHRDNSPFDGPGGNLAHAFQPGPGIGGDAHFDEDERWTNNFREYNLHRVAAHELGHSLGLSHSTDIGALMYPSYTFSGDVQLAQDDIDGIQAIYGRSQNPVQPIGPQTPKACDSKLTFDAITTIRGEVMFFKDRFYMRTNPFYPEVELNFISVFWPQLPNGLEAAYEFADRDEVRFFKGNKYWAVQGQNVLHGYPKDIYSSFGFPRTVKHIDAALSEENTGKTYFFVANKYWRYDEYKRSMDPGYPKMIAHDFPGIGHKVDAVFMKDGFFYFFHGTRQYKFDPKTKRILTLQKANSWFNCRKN
# run.description: Determination of inhibition constant (Ki) for MMP-1, fluorogenic substrate assay
# condition.description: substrate Mca-Pro-Leu-Gly-Leu-Dpa-Ala-Arg-NH2, 37°C, pH 7.6, [S] = 1 µM, [MMP-1] = 0.8 nM
Note on pKi: it is the negative log10 of concentration, concentration in mol/L.

CC(C)C[C@H](NC(=O)C(S)C(C)C)C(=O)N[C@@H](Cc1ccccc1)C(=O)O (stereo in doubt)	6.29
CNC(=O)[C@H](Cc1ccccc1)NC(=O)[C@H](CCc1ccccc1)NC(=O)[C@@H](S)C(C)C	6.33

INPUT: Given CCCC(S)C(=O)N[C@@H](CCc1ccccc1)C(=O)N[C@@H](Cc1ccccc1)C(=O)NC (stereo partly shown) , state its recorded pKi.
OUTPUT: 6.44

INPUT: Now consider CC(C)[C@H](S)C(=O)N[C@@H](CCc1ccccc1)C(=O)N[C@@H](Cc1ccccc1)C(=O)O and answer again.
OUTPUT: 5.29

---

# target.entity: MMP-1 (Homo sapiens)
# Construct: The active MMP-1 was obtained by treatment of proMMP-1 with trypsin; endogenous in cells
# run.description: Determination of inhibition constant (Ki) for MMP-1, fluorogenic substrate assay
# condition.description: substrate Mca-Pro-Leu-Gly-Leu-Dpa-Ala-Arg-NH2, 37°C, pH 7.6, [S] = 1 µM, [MMP-1] = 0.8 nM
Counter-ions that a name gives are not always drawn.
observed.property: Ki (µM)
Provide only the numeric value, understood in µM.

CCCC(S)C(=O)N[C@@H](CCc1ccccc1)C(=O)N[C@@H](Cc1ccccc1)C(=O)O (stereo partly drawn)	5.8
CSCC[C@H](NC(=O)C(S)C(C)C)C(=O)N[C@@H](Cc1ccccc1)C(=O)O (stereo in doubt)	0.153

Please examine the following record next.
INPUT: Given CC(C)C(S)C(=O)N[C@@H](CCCCN)C(=O)N[C@@H](Cc1ccccc1)C(=O)O (stereo in doubt) [Example 5, trifluoroacetic acid salt] , state its recorded Ki.
OUTPUT: 3.91
